Measured pEC50 of individual entries
# assayed.target: hFXR (Homo sapiens)
# assay.comment: In Vitro FXR Assay (TK): TK-ECRE-luc reporter in transfected CV-1 cells
# assay.setup: 18 hrs incubation, luminescence
pEC50: −log10 of the molar value.

Please review the following examples before continuing.
Input line: Give hFXR (Homo sapiens) pEC50 for COc1ccc([C@H]2CC[C@H](CN(c3cccc(-c4cnn(C(C)C)c4)c3)C(=O)[C@H]3CC[C@H](CNC(=O)C(C)C)CC3)CC2)cc1C
Output line: 6.00 to 7.30

Input line: What reported pEC50 corresponds to COC(=O)CCC(=O)N[C@H]1CC[C@H](C(=O)N(C[C@H]2CC[C@H](c3ccc(OC)c(C)c3)CC2)c2cccc(-c3cnn(C(C)C)c3)c2)CC1 on hFXR (Homo sapiens)?
Output line: 6.00 to 7.30

***
Input line: Under hFXR (Homo sapiens): pEC50 value of COc1ccc(C23CCC(CN(c4cc(-n5cnc(C(C)C)c5)ccn4)C(=O)[C@H]4CC[C@H](OC(=O)N5CC(O)C5)CC4)(CC2)CC3)cc1C ?
Output line: ≥ 7.30

====

# assayed.target: hFXR (Homo sapiens)
# assay.comment: In Vitro FXR Assay (TK): TK-ECRE-luc reporter in transfected CV-1 cells
# assay.setup: 18 hrs incubation, luminescence
Listed compounds paired with reported EC50

Input line: What value of EC50 has been reported for the following compound? COc1ccc(C23CCC(CN(c4cncc(-c5cnn(C6(C)CCC6)c5)n4)C(=O)[C@H]4CC[C@H](OC(=O)N5CC(O)C5)CC4)(CC2)CC3)cc1C [Compound 25.27]
Output line: ≤ 50 nM

More entries:
Input line: Item COc1ccc([C@H]2CC[C@H](CN(c3cccc(-c4cnn(C(C)C)c4)c3)C(=O)[C@H]3CC[C@H](CNS(=O)(=O)C(C)C)CC3)CC2)cc1C [Compound 12.04] has what recorded EC50?
Output line: 50 to 1000 nM

Input line: Bench note: what EC50 did CCc1nc(-c2ccnc(N(CC34CCC(c5ccc(OC)c(C)c5)(CC3)CC4)C(=O)[C@H]3CC[C@H](OC(=O)N4CC(CO)C4)CC3)c2)co1 [Compound 4.30] show?
Output line: ≤ 50 nM

Input line: Query (compound): COCC(=O)N[C@H]1CC[C@H](C(=O)N(CC23CCC(c4ccc(OC)c(C)c4)(CC2)CC3)c2cc(-c3cnc(C4CC4)s3)ccn2)CC1 [Compound 9.07] ; field requested: EC50
Output line: ≤ 50 nM

Input line: Recorded EC50 for COc1ccc(C23CCC(CN(c4ccnc(-c5cnn(C(C)C)c5)c4)C(=O)[C@H]4CC[C@H](OC(=O)N5CC(O)C5)CC4)(CC2)CC3)cc1C [Compound 4.59] , please?
Output line: ≤ 50 nM

Input line: Please give the measured EC50 for this compound: COc1ccc([C@H]2CC[C@H](CN(c3cccc(-c4cnn(C(C)C)c4)c3)C(=O)[C@H]3CC[C@H](NC(=O)OC4CN(C)C4)CC3)CC2)cc1C [Compound 6.07]
Output line: 50 to 1000 nM

====

# assayed.target: UniProt Q96RI1
# Sequence (Q96RI1 1-486): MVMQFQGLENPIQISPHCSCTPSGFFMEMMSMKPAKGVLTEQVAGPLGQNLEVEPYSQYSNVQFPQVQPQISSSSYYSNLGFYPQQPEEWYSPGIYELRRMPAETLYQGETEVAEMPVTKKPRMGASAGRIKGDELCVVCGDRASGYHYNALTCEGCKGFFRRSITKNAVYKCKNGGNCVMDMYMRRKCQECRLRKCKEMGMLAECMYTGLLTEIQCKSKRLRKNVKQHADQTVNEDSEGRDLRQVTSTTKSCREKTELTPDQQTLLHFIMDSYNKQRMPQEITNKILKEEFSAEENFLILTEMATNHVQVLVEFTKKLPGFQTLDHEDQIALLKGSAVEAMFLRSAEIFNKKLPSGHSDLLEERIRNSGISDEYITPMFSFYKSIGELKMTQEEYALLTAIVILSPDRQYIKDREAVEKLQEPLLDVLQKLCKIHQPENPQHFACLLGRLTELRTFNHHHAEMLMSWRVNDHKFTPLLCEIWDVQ
# Sequence (P19793 1-462 partner): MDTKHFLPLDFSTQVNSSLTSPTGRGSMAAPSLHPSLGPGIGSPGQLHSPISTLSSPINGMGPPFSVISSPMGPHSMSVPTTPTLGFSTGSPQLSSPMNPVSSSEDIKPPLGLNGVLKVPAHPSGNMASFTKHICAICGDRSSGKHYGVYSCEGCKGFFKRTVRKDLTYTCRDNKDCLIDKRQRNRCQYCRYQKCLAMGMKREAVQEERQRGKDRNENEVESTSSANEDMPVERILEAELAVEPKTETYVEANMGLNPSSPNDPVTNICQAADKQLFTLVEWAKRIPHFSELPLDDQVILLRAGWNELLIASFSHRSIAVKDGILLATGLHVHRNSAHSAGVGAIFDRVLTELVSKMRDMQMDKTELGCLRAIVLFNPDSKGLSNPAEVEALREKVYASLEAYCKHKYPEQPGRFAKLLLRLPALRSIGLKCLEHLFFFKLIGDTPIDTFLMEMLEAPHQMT
# assay.comment: In Vitro FXR Assay (TK): TK-ECRE-luc reporter in transfected CV-1 cells
# assay.setup: 18 hrs incubation, luminescence
measured.endpoint: EC50

// solved cases for EC50 follow
Input line: Data request, read-out EC50, for COc1ccc(C23CCC(CN(c4cc(-c5nnn(C(C)C)n5)ccn4)C(=O)[C@H]4CC[C@H](OC(=O)N5CC(O)C5)CC4)(CC2)CC3)cc1C
Output line: ≤ 50 nM

Input line: Which measured EC50 value corresponds to COc1ccc([C@H]2CC[C@H](CN(c3cccc(-c4cnn(C(C)C)c4)c3)C(=O)[C@H]3CC[C@H](NC(=O)C4CCCCC4)CC3)CC2)cc1C ?
Output line: 50 to 1000 nM

Input line: For the compound COc1ccc([C@H]2CC[C@H](CN(c3cc(-c4cnc(C5CC5)s4)ccn3)C(=O)[C@H]3CC[C@H](OC(=O)N4CCN(C)CC4)CC3)CC2)cc1Cl , what EC50 is on record?
Output line: ≤ 50 nM

Others:
Input line: Given the entry COc1ccc(C23CCC(CN(c4cc(-c5coc(C(C)C)n5)ccn4)C(=O)[C@H]4CC[C@H](OC(=O)N5CC(CO)C5)CC4)(CC2)CC3)cc1C , report its measured EC50.
Output line: ≤ 50 nM

Input line: # EC50 lookup, item COc1ccc(C23CCC(CN(c4ccc(F)c(-c5cnn(C(C)C)c5)c4)C(=O)[C@H]4CC[C@H](OC(=O)N5CC(C#N)C5)CC4)(CC2)CC3)cc1C
Output line: ≤ 50 nM

Input line: Given COc1ccc([C@H]2CC[C@H](CN(c3cc(-c4cnn(C(C)C)c4)ccn3)C(=O)[C@H]3CC[C@H](OC(=O)N4CCOCC4)CC3)CC2)cc1C , state its recorded EC50.
Output line: ≤ 50 nM
